test system: ATP; assay: switch fluorescence ratio, 500 uM ATP over buffer (Cy3 cluster intensity, sum of 5 cycles each) (fold (ratio)); higher = stronger signal-on switching upon ATP binding; sequences stand for … in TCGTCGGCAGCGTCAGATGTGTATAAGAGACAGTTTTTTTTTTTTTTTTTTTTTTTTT…TC; settings: aptamer strand: ATP DNA aptamer (quencher-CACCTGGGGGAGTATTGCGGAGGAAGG + anchor), 100 nM annealed; ATP concentration: 500 uM;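 note: ATP exposure 15 min at 22 °C before imaging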
# binarize switch fluorescence ratio: threshold 1 inclusive, high side 1.0, low side 0.0

# SEQUENCE TEXT, GROUP
records = [
    ("TGATGGAGAG", 0.0),
    ("TTATGGAAGG", 1.0),
    ("GCTGTACGAT", 1.0),
    ("TTTAACCTTT", 1.0),
    ("TGAATGAGAT", 0.0),
    ("GGGGGCTCAG", 0.0),
    ("TAGGTTGTCT", 1.0),
    ("CTTCGGGTAC", 1.0),
    ("AGGGCGGTCT", 1.0),
    ("GCCCAATATC", 1.0),
    ("AAAAATTTTG", 1.0),
    ("AAACACCGGG", 1.0),
    ("ATTATAGGGT", 1.0),
    ("CGAGTAGTAG", 1.0),
    ("TTCGTAAAAA", 1.0),
    ("TTTTCGGTGG", 1.0),
    ("ATTGGCGCGG", 0.0),
    ("AATCGTTGCT", 0.0),
    ("TTGGAAATTT", 1.0),
    ("GCGATGGGGC", 1.0),
    ("ACTTGTTTCG", 0.0),
    ("CCTGCTGGCG", 1.0),
    ("GGGAATGGTG", 1.0),
    ("AGATGTACTA", 1.0),
    ("TGTTTCGGTT", 0.0),
]

###

tested on: ATP; test: switch fluorescence ratio, 500 uM ATP over buffer (Cy3 cluster intensity, sum of 5 cycles each) (fold (ratio)); higher = stronger signal-on switching upon ATP binding; sequences stand for … in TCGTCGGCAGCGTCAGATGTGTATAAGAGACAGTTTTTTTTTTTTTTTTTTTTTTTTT…TC; details: aptamer strand: ATP DNA aptamer (quencher-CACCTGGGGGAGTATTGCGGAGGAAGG + anchor), 100 nM annealed; ATP concentration: 500 uM;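 note: ATP exposure 15 min at 22 °C before imaging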
MEASURED PROPERTY: switch fluorescence ratio

# SEQUENCE TEXT, REPORTED RESULT
data = [
    ("TTGGGACAAT", 1.04),
    ("GGGTAAGGTG", 1.3),
    ("TTTTTACTAA", 1.01),
    ("TTTTGCACGC", 1.28),
    ("TTTTTTAGAT", 0.985),
    ("TTTAATAGCT", 1),
    ("TACTCTCGGT", 1.03),
    ("AAGGGAGTCA", 0.992),
    ("TTACGAAGTT", 1),
    ("AGATCGTGAG", 0.97),
    ("GTGATCTGAT", 1.01),
    ("TCCTTAACTT", 1.02),
    ("TGCTTCTCCA", 1.03),
    ("ATTTACGGGG", 1.04),
    ("CTGTATTCGC", 1.17),
    ("CTAAGAGGGC", 1.02),
]

###

test system: ATP; experiment: switch fluorescence ratio, 500 uM ATP over buffer (Cy3 cluster intensity, sum of 5 cycles each) (fold (ratio)); higher = stronger signal-on switching upon ATP binding; sequences stand for … in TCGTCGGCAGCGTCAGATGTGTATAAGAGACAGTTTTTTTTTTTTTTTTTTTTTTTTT…TC; conditions: aptamer strand: ATP DNA aptamer (quencher-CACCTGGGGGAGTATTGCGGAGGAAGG + anchor), 100 nM annealed; ATP concentration: 500 uM;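 note: ATP exposure 15 min at 22 °C before imaging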

# SEQUENCE TEXT, TESTED ON, switch fluorescence ratio
measured = [
    ("TATGTACATG", "ATP", 1),
    ("GAGCTTCTCT", "ATP", 1.02),
    ("GGTTCTTGG", "ATP", 0.995),
    ("GGGGAGAGGT", "ATP", 1),
    ("TAATAGAAAA", "ATP", 1.01),
    ("AGAGTGACGA", "ATP", 1.01),
    ("TGAGTTAAGT", "ATP", 0.997),
    ("TTTATTATTG", "ATP", 0.989),
    ("TTTCTTTCGT", "ATP", 1.12),
    ("TTGCTAGTAT", "ATP", 1),
    ("GGGATGGCCT", "ATP", 0.959),
    ("GTGGAGGTTG", "ATP", 0.984),
    ("GGGAGTCTTC", "ATP", 1.04),
    ("ATTTTTAAGA", "ATP", 1),
    ("TATTTGTTTT", "ATP", 0.998),
    ("GTTTGAGGTG", "ATP", 1),
    ("GAGGTTGTTT", "ATP", 0.977),
]

###

tested on: ATP; assay: switch fluorescence ratio, 500 uM ATP over buffer (Cy3 cluster intensity, sum of 5 cycles each) (fold (ratio)); higher = stronger signal-on switching upon ATP binding; sequences stand for … in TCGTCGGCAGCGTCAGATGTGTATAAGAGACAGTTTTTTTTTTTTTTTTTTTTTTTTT…TC; details: aptamer strand: ATP DNA aptamer (quencher-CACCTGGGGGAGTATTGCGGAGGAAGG + anchor), 100 nM annealed; ATP concentration: 500 uM;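 note: ATP exposure 15 min at 22 °C before imaging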

# SEQUENCE TEXT, switch fluorescence ratio
rows = [
    ("ATGGATCACC", 1.02),
    ("AAGTGTTATT", 0.992),
    ("TTTAAGTGAT", 1.01),
    ("GATGTTTTCT", 0.982),
    ("GGATTTTCAC", 1),
    ("TAAGGGAATG", 0.985),
    ("TCTTCGGTTG", 0.981),
    ("AAAGTTGATT", 1.01),
    ("GGGGGGGTAA", 0.993),
    ("GTAATCATCG", 0.985),
    ("GGTTATTGGA", 0.995),
    ("GGCCAGTTTG", 0.986),
    ("TGAGAGTTTA", 1.02),
    ("CGTTAAACTT", 1.01),
    ("CATGCTTGGT", 1.01),
    ("CAGCATGGGT", 1.02),
    ("TTAACGGGAG", 0.99),
    ("GGGATTGGGT", 1.01),
    ("ACTGCTGAAT", 0.99),
    ("TACTCTTTGT", 1.01),
    ("GCTGGGGTTG", 0.984),
    ("TTAATTTTGG", 1.02),
    ("TTTTTTAACA", 1.01),
    ("CAAGCCATCA", 0.999),
    ("TCAAAATGCA", 0.998),
    ("AAGGGGCAAT", 1.01),
    ("GAGTTCATAG", 1),
]

###

test system: ATP; assay: switch fluorescence ratio, 500 uM ATP over buffer (Cy3 cluster intensity, sum of 5 cycles each) (fold (ratio)); higher = stronger signal-on switching upon ATP binding; sequences stand for … in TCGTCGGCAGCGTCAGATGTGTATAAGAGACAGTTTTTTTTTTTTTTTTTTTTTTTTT…TC; conditions: aptamer strand: ATP DNA aptamer (quencher-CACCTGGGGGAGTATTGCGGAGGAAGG + anchor), 100 nM annealed; ATP concentration: 500 uM;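 note: ATP exposure 15 min at 22 °C before imaging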
Reported switch fluorescence ratio values are given for each entry in this list.
MEASURED PROPERTY: switch fluorescence ratio

# SEQUENCE TEXT, REPORTED RESULT
records = [
    ("GTGTGGGGCG", 0.962),
    ("AGGTGTTTTT", 1.03),
    ("TGATAAATGT", 1.13),
    ("CGGGGAAAGA", 0.978),
    ("TTTACGATGC", 1.05),
    ("GCTATGTGGG", 1),
    ("AAATCGTGGA", 0.987),
    ("CGAATTAGGT", 1.03),
    ("TTTAACTTAT", 1.03),
    ("CCTACACTGG", 1.13),
    ("GCGTTACTTA", 1.06),
    ("GCTCAACAGA", 1.02),
    ("GTTGGGGGG", 0.984),
    ("GGGTTGCAAC", 1.24),
    ("AGTTATAATT", 1.01),
    ("CTTATATCTT", 0.993),
    ("CTAGGGGGGG", 0.988),
    ("CGTTAAGGGA", 0.978),
    ("CGTCTTAAAG", 1),
    ("TGGGGATTGC", 1.02),
    ("TGAGTCGCGT", 1.01),
    ("GGGAGGGTTT", 0.98),
    ("CGGTCAGGGA", 1.01),
    ("TTCAGGTAAC", 1.05),
    ("AAGCTGAAGT", 1.03),
    ("TGTGTTAATA", 0.966),
    ("CACATTAACT", 1.09),
    ("ATGTTGGGGA", 0.996),
    ("GGCGAAGGGT", 0.98),
    ("GAGGAGGTTG", 1.03),
    ("GAATCAAGCG", 0.986),
    ("TTACTCTTCG", 1.06),
    ("GAGTTTGTTA", 1.01),
    ("GACGTGACGA", 1.15),
    ("GCGAATTAGA", 1),
    ("ACGGAGACCG", 1.01),
    ("GTTAAGGATG", 1.01),
]
